Catalogue of Kd values
biological target: T1, human ROR1 Frizzled domain (hROR1-Fz) (human, UniProt Q01973 165-305); test: SPR Biacore, IgG on anti-Fc, ROR1-Fz analyte
T1 construct: Acro Biosystems, made in HEK293
T1 sequence (Q01973 other isoform, or with tags, fused parts or gaps): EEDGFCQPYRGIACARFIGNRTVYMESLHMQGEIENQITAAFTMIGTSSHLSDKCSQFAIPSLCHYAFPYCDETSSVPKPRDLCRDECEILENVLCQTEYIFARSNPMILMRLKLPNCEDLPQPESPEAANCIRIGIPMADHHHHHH
Quick reminder: number only, in nM, skip the unit.

Before answering, review these 2 worked examples.
Exam item: Identify Kd associated with the binder SRP1944-A07 w SP34 LC3 (antibody, V domains shown, Parent of SRP2196; IgG) VH: EVQLVESGGGLVQPGGSLRLSCAASGFNITGYYIHWVRQAPGKGLEWVGYISPNSGSTYYADSVKGRFTISADTSKNTAYLQMNSLRAEDTAVYYCARDSRRYVRPFDYWGQGTLVTVSS VL: QTVVTQEPSLTVSPGGTVTLTCGSSTGAVTSGYYPNWFQQKPGQAPRGLIGGTKFLAPGTPARFSGSLLGGKAALTLSGVQPEDEAEYYCALWYSNRWVFGGGTQLTVTG
Marked response: 14.3

Exam item: Specify reported Kd for the binder shown: SRP2196-A04 (antibody, V domains shown, His/FLAG-tagged IgG1) VH: EVQLVESGGGLVQPGGSLRLSCAASGFNISPYYIHWVRQAPGKGLEWVGQIYPISGHTYQADSVKGRFTISADTSKNTAYLQMNSLRAEDTAVYYCARESRRYVGPFGYWGQGTLVTVSS VL: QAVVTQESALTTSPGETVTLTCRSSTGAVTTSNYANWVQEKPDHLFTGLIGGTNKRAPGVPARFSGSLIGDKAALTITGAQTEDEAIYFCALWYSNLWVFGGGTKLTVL
Marked response: 2.46

Please turn your attention to the following entry.
Exam item: Look up Kd of SRP2196-A03 (antibody, V domains shown, His/FLAG-tagged IgG1; also called Antibody 150) VH: EVQLVESGGGLVQPGGSLRLSCAASGFNITQYHIHWVRQAPGKGLEWVGYISPNSGSTHEADSVKGRFTISADTSKNTAYLQMNSLRAEDTAVYYCARDSRRYVRGWDYWGQGTLVTVSS VL: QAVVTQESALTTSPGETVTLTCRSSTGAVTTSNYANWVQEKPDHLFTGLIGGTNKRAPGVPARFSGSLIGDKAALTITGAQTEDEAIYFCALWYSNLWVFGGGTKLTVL and report it.
Marked response: 1.63
